The measurements presented in this section are drawn from the supplement of paper PMC10065799.

Target: SHP2-C SH2;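 note: peptide library displayed on the E. coli surface as eCPX fusions, selected cells deep-sequenced, score is each peptide's frequency after selection divided by its frequency in the input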
Assay: SH2 binding enrichment of the phosphorylated peptide, bacterial display (enrichment ratio); higher = better substrate or ligand; peptides without Tyr show the background
Reported SH2 binding enrichment values are given for each entry in this list.
Quantity name: SH2 binding enrichment

Record sequence: PSELYYSKIGP [SMG1_Y2254]
Quantity name: SH2 binding enrichment
Endpoint result: 2.26

Record sequence: EHTTLYSDNST [KANSL1_Y223_N225D]
Quantity name: SH2 binding enrichment
Endpoint result: 0.723

Record sequence: TDLAFYLVCKG [ASL_Y376_R379C_YF]
Quantity name: SH2 binding enrichment
Endpoint result: 0.461

Record sequence: HNQDGYSFLSR [LDLR_Y845_P848L_YF]
Quantity name: SH2 binding enrichment
Endpoint result: 2.83

Record sequence: STQAHYRLSAF [ADAMTS9_Y100_S96T]
Quantity name: SH2 binding enrichment
Endpoint result: 0.859

Record sequence: SFHSSYSEIKD [DCLRE1C_Y322]
Quantity name: SH2 binding enrichment
Endpoint result: 4.96

Record sequence: KDGSGYISAAE [CALM1_Y100_N98S]
Quantity name: SH2 binding enrichment
Endpoint result: 0.816

###

Examples of sequences with documented phosphorylation enrichment follow.
Target: FGFR1 (UniProt P11362)
Sequence (P11362 whole entry, looked up): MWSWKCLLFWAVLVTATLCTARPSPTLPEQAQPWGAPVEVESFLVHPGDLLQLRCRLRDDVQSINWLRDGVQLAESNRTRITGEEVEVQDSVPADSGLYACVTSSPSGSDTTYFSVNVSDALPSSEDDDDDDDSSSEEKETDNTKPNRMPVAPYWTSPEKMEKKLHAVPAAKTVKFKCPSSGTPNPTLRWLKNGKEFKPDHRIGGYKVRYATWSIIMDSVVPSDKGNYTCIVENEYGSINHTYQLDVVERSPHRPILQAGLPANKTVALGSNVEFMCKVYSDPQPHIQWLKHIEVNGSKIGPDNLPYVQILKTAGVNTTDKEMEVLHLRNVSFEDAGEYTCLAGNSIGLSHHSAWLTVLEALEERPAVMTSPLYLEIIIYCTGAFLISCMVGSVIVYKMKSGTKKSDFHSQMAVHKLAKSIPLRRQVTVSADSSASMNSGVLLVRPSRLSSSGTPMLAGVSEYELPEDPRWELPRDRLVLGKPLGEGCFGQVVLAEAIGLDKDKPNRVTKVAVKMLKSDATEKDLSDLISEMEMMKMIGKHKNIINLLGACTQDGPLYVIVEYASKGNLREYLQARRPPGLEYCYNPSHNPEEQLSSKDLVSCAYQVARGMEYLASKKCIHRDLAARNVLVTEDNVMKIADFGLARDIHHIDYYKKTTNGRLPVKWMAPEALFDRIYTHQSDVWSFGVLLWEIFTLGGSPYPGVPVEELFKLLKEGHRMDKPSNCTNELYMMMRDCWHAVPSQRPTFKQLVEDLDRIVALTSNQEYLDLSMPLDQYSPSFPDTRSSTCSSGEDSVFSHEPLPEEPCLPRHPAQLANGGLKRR
Experiment: phosphorylation enrichment, bacterial display (enrichment ratio); higher = better substrate or ligand; peptides without Tyr show the background

Record sequence: VKYGAYINDFK [GLB1_Y488_N484K]
phosphorylation enrichment: 0.363

Record sequence: SSPVLYLSPET [TJP1_Y931_P930L]
phosphorylation enrichment: 0.663

Record sequence: DPEATYTTSGG [EPHA2_Y772]
phosphorylation enrichment: 0.502

Record sequence: ADKSAYLMGVN [MYH7_Y386_L390V]
phosphorylation enrichment: 0.399

Record sequence: EYITRYIDSLK [PSMA7_Y110_A112D]
phosphorylation enrichment: 0.528

Record sequence: SVIKEYQIRQV [USH2A_Y3623_G3618S]
phosphorylation enrichment: 0.377

Record sequence: FQLPFYNMVPS [BMPR1A_Y458_YF]
phosphorylation enrichment: 1.21

###

Biological target: MERTK (UniProt Q12866)
Sequence (Q12866 whole entry, looked up): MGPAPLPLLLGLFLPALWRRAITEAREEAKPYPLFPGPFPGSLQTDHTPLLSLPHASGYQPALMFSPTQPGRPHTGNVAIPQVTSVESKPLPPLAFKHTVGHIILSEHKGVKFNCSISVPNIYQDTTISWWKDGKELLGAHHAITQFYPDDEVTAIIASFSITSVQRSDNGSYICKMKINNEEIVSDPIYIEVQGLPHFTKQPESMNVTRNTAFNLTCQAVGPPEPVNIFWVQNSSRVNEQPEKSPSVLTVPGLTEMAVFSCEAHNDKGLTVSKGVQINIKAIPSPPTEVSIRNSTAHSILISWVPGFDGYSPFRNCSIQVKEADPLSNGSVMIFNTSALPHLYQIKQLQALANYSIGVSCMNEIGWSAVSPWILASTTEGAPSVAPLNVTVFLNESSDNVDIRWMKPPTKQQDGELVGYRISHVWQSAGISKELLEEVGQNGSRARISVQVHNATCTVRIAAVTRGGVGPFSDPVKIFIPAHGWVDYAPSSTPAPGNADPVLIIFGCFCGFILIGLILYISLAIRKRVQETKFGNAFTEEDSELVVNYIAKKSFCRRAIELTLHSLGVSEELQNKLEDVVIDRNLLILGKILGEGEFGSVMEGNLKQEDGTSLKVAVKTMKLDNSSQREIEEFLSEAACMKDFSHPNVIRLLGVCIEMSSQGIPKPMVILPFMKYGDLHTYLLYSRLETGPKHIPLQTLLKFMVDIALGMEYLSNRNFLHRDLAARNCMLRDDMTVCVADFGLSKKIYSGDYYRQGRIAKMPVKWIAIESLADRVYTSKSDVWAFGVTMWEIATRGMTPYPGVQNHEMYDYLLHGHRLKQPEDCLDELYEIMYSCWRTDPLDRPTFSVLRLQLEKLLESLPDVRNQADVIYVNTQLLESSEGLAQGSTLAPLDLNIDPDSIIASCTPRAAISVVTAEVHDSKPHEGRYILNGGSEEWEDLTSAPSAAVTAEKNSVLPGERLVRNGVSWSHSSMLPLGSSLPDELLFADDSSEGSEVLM
Test: phosphorylation enrichment, bacterial display (enrichment ratio); higher = better substrate or ligand; peptides without Tyr show the background
Recorded measurements of phosphorylation enrichment, one per entry
Quantity name: phosphorylation enrichment

Record sequence: QGLRLYRPHLP [BTK_Y617_A622P]
Quantity name: phosphorylation enrichment
Endpoint result: 0.512
//
Record sequence: VFPIDYYFPPQ [AR_Y552_L548F]
Quantity name: phosphorylation enrichment
Endpoint result: 2.24
//
Record sequence: FASTGYVIAIQ [GRIN2B_Y762_G763V]
Quantity name: phosphorylation enrichment
Endpoint result: 0.393

###

Parameter: phosphorylation enrichment. Scope: all listed entries.
Biological target: FGFR3 (UniProt P22607)
Sequence (P22607 whole entry, looked up): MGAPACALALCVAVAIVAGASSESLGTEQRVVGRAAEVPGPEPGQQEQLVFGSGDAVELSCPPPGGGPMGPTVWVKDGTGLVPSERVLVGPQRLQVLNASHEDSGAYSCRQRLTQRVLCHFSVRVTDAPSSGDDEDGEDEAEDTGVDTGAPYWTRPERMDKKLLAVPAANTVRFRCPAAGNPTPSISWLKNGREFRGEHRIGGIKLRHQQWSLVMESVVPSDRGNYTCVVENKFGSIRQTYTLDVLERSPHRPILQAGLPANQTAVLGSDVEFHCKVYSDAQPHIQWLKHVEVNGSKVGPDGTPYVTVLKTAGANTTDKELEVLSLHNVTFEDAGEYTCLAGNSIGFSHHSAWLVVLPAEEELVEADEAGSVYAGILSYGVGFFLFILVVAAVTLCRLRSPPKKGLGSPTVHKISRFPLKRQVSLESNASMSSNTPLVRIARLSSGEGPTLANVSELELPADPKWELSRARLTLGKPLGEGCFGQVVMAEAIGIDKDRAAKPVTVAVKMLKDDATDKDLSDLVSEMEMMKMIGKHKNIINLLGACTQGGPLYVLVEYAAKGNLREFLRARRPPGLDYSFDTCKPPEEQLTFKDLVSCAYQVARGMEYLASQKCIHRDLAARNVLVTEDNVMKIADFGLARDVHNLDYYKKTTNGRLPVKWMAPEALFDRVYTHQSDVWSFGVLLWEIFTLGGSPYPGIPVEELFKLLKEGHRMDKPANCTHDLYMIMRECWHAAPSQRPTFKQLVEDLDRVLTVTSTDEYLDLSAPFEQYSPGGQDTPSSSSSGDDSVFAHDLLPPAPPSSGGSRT
Experiment: phosphorylation enrichment, bacterial display (enrichment ratio); higher = better substrate or ligand; peptides without Tyr show the background

Record sequence: RDSQLYAVDYE [MRPS34_Y34]
Test target: FGFR3 (UniProt P22607)
phosphorylation enrichment: 1.38
--
Record sequence: LSVEIHDRREY [ITGB7_Y753_Y753H]
Test target: FGFR3 (UniProt P22607)
phosphorylation enrichment: 0.633
--
Record sequence: RDSQIYAVDFE [MRPS34_Y34_L33I_YF]
Test target: FGFR3 (UniProt P22607)
phosphorylation enrichment: 0.656
--
Record sequence: PEADKYRLTFA [FGG_Y300_YF]
Test target: FGFR3 (UniProt P22607)
phosphorylation enrichment: 0.78
--
Record sequence: SSPVLYLSPET [TJP1_Y931_P930L]
Test target: FGFR3 (UniProt P22607)
phosphorylation enrichment: 0.713
--
Record sequence: LNAGAYSKVVE [PPT1_Y172_Q177E]
Test target: FGFR3 (UniProt P22607)
phosphorylation enrichment: 0.378
--
Record sequence: EIRTQDEAMAS [GFAP_Y242_Y242D]
Test target: FGFR3 (UniProt P22607)
phosphorylation enrichment: 0.57
--
Record sequence: LATINYPFEKG [NDUFS8_Y84_P79L]
Test target: FGFR3 (UniProt P22607)
phosphorylation enrichment: 0.576
--
Record sequence: NPETCYQKLKK [TK2_Y190_R192K]
Test target: FGFR3 (UniProt P22607)
phosphorylation enrichment: 0.774
--
Record sequence: LARDMDDKEYY [MET_Y1230_Y1230D]
Test target: FGFR3 (UniProt P22607)
phosphorylation enrichment: 1.19
--
Record sequence: KILTHYKRPHT [KMT2D_Y5349]
Test target: FGFR3 (UniProt P22607)
phosphorylation enrichment: 0.515
--
Record sequence: FQKDVYNIPPS [NEDD9_Y177_D178N_YF]
Test target: FGFR3 (UniProt P22607)
phosphorylation enrichment: 0.468
--
Record sequence: ADRLEYSRTGL [MMUT_Y287_G284R]
Test target: FGFR3 (UniProt P22607)
phosphorylation enrichment: 0.651
--
Record sequence: FISLIYTNFEA [GSTP1_Y109_YF]
Test target: FGFR3 (UniProt P22607)
phosphorylation enrichment: 1.12
--
Record sequence: HEEDNYIEMIP [NWD2_Y566_L569M]
Test target: FGFR3 (UniProt P22607)
phosphorylation enrichment: 3.82
--
Record sequence: LVGTPYWMAPE [PAK5_Y608]
Test target: FGFR3 (UniProt P22607)
phosphorylation enrichment: 1.84
--
Record sequence: RPLVVYPWTQR [HBB_Y36_L32P]
Test target: FGFR3 (UniProt P22607)
phosphorylation enrichment: 0.45
--
Record sequence: VRQQDYKKVEE [HADHA_Y283_V282D]
Test target: FGFR3 (UniProt P22607)
phosphorylation enrichment: 0.442
--
Record sequence: KDKLPYLYDDP [GPX2_Y125_P126L]
Test target: FGFR3 (UniProt P22607)
phosphorylation enrichment: 0.624
--
Record sequence: GEETDYTPVWC [UROD_Y30]
Test target: FGFR3 (UniProt P22607)
phosphorylation enrichment: 0.92
--
Record sequence: TSFSGYRCHRH [NKAPL_Y94_Y96C_YF]
Test target: FGFR3 (UniProt P22607)
phosphorylation enrichment: 0.45
--
Record sequence: TYTVSYLPDMS [FLNC_Y1602]
Test target: FGFR3 (UniProt P22607)
phosphorylation enrichment: 0.656
--
Record sequence: PDNEPYIFKVF [PIK3AP1_Y553]
Test target: FGFR3 (UniProt P22607)
phosphorylation enrichment: 1.5
--
Record sequence: SYMVRYNQPRV [GRIN2D_Y736]
Test target: FGFR3 (UniProt P22607)
phosphorylation enrichment: 0.523
--
Record sequence: DISEPYKVYRI [IRF8_Y107]
Test target: FGFR3 (UniProt P22607)
phosphorylation enrichment: 0.549
--
Record sequence: PGLSSYGVPGS [FLNB_Y1530_A1534G]
Test target: FGFR3 (UniProt P22607)
phosphorylation enrichment: 0.643
--
Record sequence: NFATLHLKIFH [PDE6B_Y219_Y219H_YF]
Test target: FGFR3 (UniProt P22607)
phosphorylation enrichment: 0.817
--
Record sequence: HNLDFYKETTN [FGFR3_Y648_K650E_YF]
Test target: FGFR3 (UniProt P22607)
phosphorylation enrichment: 0.915
--
Record sequence: RAILDYIASKY [GSTA3_Y74_N73D]
Test target: FGFR3 (UniProt P22607)
phosphorylation enrichment: 0.661
--
Record sequence: EQFELYCEMGS [CBL_Y371_YF]
Test target: FGFR3 (UniProt P22607)
phosphorylation enrichment: 1.54
--
Record sequence: KICDWYQRQRP [KRT14_Y151_R148C]
Test target: FGFR3 (UniProt P22607)
phosphorylation enrichment: 0.598
--
Record sequence: KDKLPYPFDDP [GPX2_Y125_YF]
Test target: FGFR3 (UniProt P22607)
phosphorylation enrichment: 0.638
--
Record sequence: TRSFKYLLLSM [NF1_Y491_YF]
Test target: FGFR3 (UniProt P22607)
phosphorylation enrichment: 0.548
--
Record sequence: DCVRMYELVHR [GLE1_Y135_G130D]
Test target: FGFR3 (UniProt P22607)
phosphorylation enrichment: 0.831
--
Record sequence: LPPGEYVVVPS [CAPN1_Y494]
Test target: FGFR3 (UniProt P22607)
phosphorylation enrichment: 1.93
--
Record sequence: GHEEFYSTHPH [LRRK2_Y1402_R1398H]
Test target: FGFR3 (UniProt P22607)
phosphorylation enrichment: 0.549
--
Record sequence: FPLAEYTEVKT [ALDH1A3_Y497_A493P_YF]
Test target: FGFR3 (UniProt P22607)
phosphorylation enrichment: 0.82
--
Record sequence: KDQGGYTMHQD [MAPT_Y29]
Test target: FGFR3 (UniProt P22607)
phosphorylation enrichment: 0.465
--
Record sequence: RGDIFYTSKLW [AKR1C3_Y81_E77G]
Test target: FGFR3 (UniProt P22607)
phosphorylation enrichment: 1.09
--
Record sequence: SREALYNEMDP [CACNA1A_Y794]
Test target: FGFR3 (UniProt P22607)
phosphorylation enrichment: 0.896
--
Record sequence: SSSGGYGGGYG [KRT19_Y61_A60G]
Test target: FGFR3 (UniProt P22607)
phosphorylation enrichment: 0.335
--
Record sequence: SLEKSYELPDG [ACTA1_Y242]
Test target: FGFR3 (UniProt P22607)
phosphorylation enrichment: 0.707
--
Record sequence: KGPNVYKKTVN [REV3L_Y1156]
Test target: FGFR3 (UniProt P22607)
phosphorylation enrichment: 0.391
--
Record sequence: GLIPAYHWVIM [NMNAT1_Y64_R66W]
Test target: FGFR3 (UniProt P22607)
phosphorylation enrichment: 6.04
--
Record sequence: DRIVNYSRASI [ATP7A_Y1459]
Test target: FGFR3 (UniProt P22607)
phosphorylation enrichment: 0.426
--
Record sequence: FDDIACIRKTL [PIK3CA_Y1021_Y1021C]
Test target: FGFR3 (UniProt P22607)
phosphorylation enrichment: 0.756
--
Record sequence: FSKDIYKRVTG [PANK2_Y405_N404I_YF]
Test target: FGFR3 (UniProt P22607)
phosphorylation enrichment: 0.413
--
Record sequence: AEYGLYGAMVW [VSX2_Y222_R227W]
Test target: FGFR3 (UniProt P22607)
phosphorylation enrichment: 0.86
--
Record sequence: GSPAPYRRRKR [MBD1_Y403_P401A]
Test target: FGFR3 (UniProt P22607)
phosphorylation enrichment: 0.426
--
Record sequence: GEPLSHTRFSL [TFRC_Y20_Y20H]
Test target: FGFR3 (UniProt P22607)
phosphorylation enrichment: 0.435
--
Record sequence: SSEFHYVGGFF [CTSC_Y347_YF]
Test target: FGFR3 (UniProt P22607)
phosphorylation enrichment: 0.813
--
Record sequence: LITTPYIGFLG [KCNQ1_Y267_L266P]
Test target: FGFR3 (UniProt P22607)
phosphorylation enrichment: 0.641
--
Record sequence: MFNPMYALFRT [HUWE1_Y4078]
Test target: FGFR3 (UniProt P22607)
phosphorylation enrichment: 0.676
--
Record sequence: QRNEEYCLLDS [ITK_Y198_R193Q]
Test target: FGFR3 (UniProt P22607)
phosphorylation enrichment: 1.37
--
Record sequence: APGNAYGDAGF [SYP_Y250_D248N_YF]
Test target: FGFR3 (UniProt P22607)
phosphorylation enrichment: 0.412
--
Record sequence: DYYDLYGGEKL [PTPN11_Y66_F71L]
Test target: FGFR3 (UniProt P22607)
phosphorylation enrichment: 14.1
--
Record sequence: PPGRSYSPCDF [TNS1_Y793_Y796C_YF]
Test target: FGFR3 (UniProt P22607)
phosphorylation enrichment: 0.816
